Test system: Midbrain
experiment-notes: Drug uptake in anesthetized cynomolgus monkey brain midbrain after 75 mins postinjection
Assay type: ADME, organism-based, Macaca fascicularis
Parameters: unit not given here
assay-conditions: in vivo, 1.25 h
Decide using Drug uptake: a value greater than or equal to 5 is TRUE, a smaller one is FALSE.

Answered cases to consult:
compound: O=C(OCC[18F])C1C2CCC(CC1c1cccc(/C=C\I)c1)N2 (stereo not given)
qualitative-label: FALSE
--
compound: O=C(OCC[18F])C1C2CCC(CC1c1ccc(/C=C\I)cc1)N2 (stereo not given)
qualitative-label: FALSE

Tell me whether Drug uptake is at least 5 here: O=C(OCCC[18F])C1C2CCC(CC1c1cccc(/C=C\Br)c1)N2 (stereo not given)
TRUE

====

experiment-notes: Ratio of drug uptake in putamen to cerebellum in anesthetized cynomolgus monkey after 155 mins postinjection
Assay type: ADME, organism-based, Macaca fascicularis
assay-conditions: in vivo
This listing pairs molecules with measured Ratio.

These solved cases illustrate the format of a correct answer.
molecule: O=C(OCC[18F])C1C2CCC(CC1c1cccc(/C=C\I)c1)N2 (stereo not given)
Ratio: 1.8
//
molecule: O=C(OCCC[18F])C1C2CCC(CC1c1cccc(/C=C\Br)c1)N2 (stereo not given)
Ratio: 1.7
//
molecule: O=C(OCC[18F])C1C2CCC(CC1c1cccc(/C=C\Br)c1)N2 (stereo not given)
Ratio: 1.8
//
molecule: O=C(OCC[18F])C1C2CCC(CC1c1ccc(/C=C\I)cc1)N2 (stereo not given)
Ratio: 2.8

As a next step, examine the molecule that follows.
Param item = O=C(OCCC[18F])C1C2CCC(CC1c1cccc(/C=C\I)c1)N2 (stereo not given) ; retrieve measured Ratio.
1.6

====

Tested on: Midbrain
experiment-notes: Drug uptake in anesthetized cynomolgus monkey brain midbrain after 45 mins postinjection
Format: ADME, organism-based, Macaca fascicularis
Set-up: unit not given here
assay-conditions: in vivo, 0.75 h
Threshold-based label: Drug uptake under 5 gives true, Drug uptake not under 5 gives false.

Would you please look over these solved cases?
compound: O=C(OCC[18F])C1C2CCC(CC1c1ccc(/C=C\I)cc1)N2 (stereo not given)
qualitative-label: true
--
compound: O=C(OCC[18F])C1C2CCC(CC1c1cccc(/C=C\Br)c1)N2 (stereo not given)
qualitative-label: true

Attention now turns to another entry.
Quick check: does O=C(OCCC[18F])C1C2CCC(CC1c1cccc(/C=C\Br)c1)N2 (stereo not given) have Drug uptake under 5?
false

====

System: Medulla
experiment-notes: Drug uptake in anesthetized cynomolgus monkey brain medulla after 1.5 mins postinjection
Assay type: ADME, organism-based, Macaca fascicularis
assay-conditions: in vivo, 0.025 h
property-measured: Drug uptake
// return just the number, without any unit appended

Completed entries (count: 4):
compound: O=C(OCC[18F])C1C2CCC(CC1c1cccc(/C=C\Br)c1)N2 (stereo not given)
target-entity: Medulla
property-measured: Drug uptake
measurement: 0.08
//
compound: O=C(OCCC[18F])C1C2CCC(CC1c1cccc(/C=C\Br)c1)N2 (stereo not given)
target-entity: Medulla
property-measured: Drug uptake
measurement: 0.42
//
compound: O=C(OCC[18F])C1C2CCC(CC1c1ccc(/C=C\I)cc1)N2 (stereo not given)
target-entity: Medulla
property-measured: Drug uptake
measurement: 0.14
//
compound: O=C(OCCC[18F])C1C2CCC(CC1c1cccc(/C=C\I)c1)N2 (stereo not given)
target-entity: Medulla
property-measured: Drug uptake
measurement: 0.35

Now look at this entry.
Consider the compound O=C(OCC[18F])C1C2CCC(CC1c1cccc(/C=C\I)c1)N2 (stereo not given) and give its measured Drug uptake.
0.13

====

Tested on: Midbrain
experiment-notes: Drug uptake in anesthetized cynomolgus monkey brain midbrain after 135 mins postinjection
Format: ADME, organism-based, Macaca fascicularis
assay-conditions: in vivo, 2.25 h
Parameter: Drug uptake. Scope: all listed entries.
Would you mind answering with just the numeric figure?

In the examples that follow, each entry is paired with its recorded Drug uptake.
compound: O=C(OCC[18F])C1C2CCC(CC1c1cccc(/C=C\Br)c1)N2 (stereo not given)
Drug uptake: 4.67
--
compound: O=C(OCC[18F])C1C2CCC(CC1c1cccc(/C=C\I)c1)N2 (stereo not given)
Drug uptake: 3.97
--
compound: O=C(OCCC[18F])C1C2CCC(CC1c1cccc(/C=C\Br)c1)N2 (stereo not given)
Drug uptake: 5.36
--
compound: O=C(OCCC[18F])C1C2CCC(CC1c1cccc(/C=C\I)c1)N2 (stereo not given)
Drug uptake: 4.45

Any idea what Drug uptake was measured for O=C(OCC[18F])C1C2CCC(CC1c1ccc(/C=C\I)cc1)N2 (stereo not given) ?
4.7

====

Test system: Putamen
experiment-notes: Drug uptake in anesthetized cynomolgus monkey brain putamen after 9.5 mins postinjection
Assay type: ADME, organism-based, Macaca fascicularis
Design: unit not given here
assay-conditions: in vivo
Binary call on Drug uptake: condition met from 4 upward, condition not met beneath that.

Field: example entries. Status: answers known.
compound: O=C(OCC[18F])C1C2CCC(CC1c1cccc(/C=C\I)c1)N2 (stereo not given)
qualitative-label: condition not met

compound: O=C(OCCC[18F])C1C2CCC(CC1c1cccc(/C=C\Br)c1)N2 (stereo not given)
qualitative-label: condition met

compound: O=C(OCC[18F])C1C2CCC(CC1c1ccc(/C=C\I)cc1)N2 (stereo not given)
qualitative-label: condition not met

compound: O=C(OCC[18F])C1C2CCC(CC1c1cccc(/C=C\Br)c1)N2 (stereo not given)
qualitative-label: condition not met

Turning now to a further record.
API: above_or_equal(metric=Drug uptake, cutoff=4) for item O=C(OCCC[18F])C1C2CCC(CC1c1cccc(/C=C\I)c1)N2 (stereo not given)
condition not met

====

Tested on: Midbrain
experiment-notes: Drug uptake in anesthetized cynomolgus monkey brain midbrain after 125 mins postinjection
Assay type: ADME, organism-based, Macaca fascicularis
Design: unit not given here
assay-conditions: in vivo
Parameter Drug uptake: see the listing below.

Below, 4 compounds whose answers are already recorded.
compound: O=C(OCCC[18F])C1C2CCC(CC1c1cccc(/C=C\I)c1)N2 (stereo not given)
Drug uptake: 4.58

compound: O=C(OCC[18F])C1C2CCC(CC1c1ccc(/C=C\I)cc1)N2 (stereo not given)
Drug uptake: 4.62

compound: O=C(OCCC[18F])C1C2CCC(CC1c1cccc(/C=C\Br)c1)N2 (stereo not given)
Drug uptake: 5.5

compound: O=C(OCC[18F])C1C2CCC(CC1c1cccc(/C=C\Br)c1)N2 (stereo not given)
Drug uptake: 4.73

Value wanted: Drug uptake (Midbrain) of entry O=C(OCC[18F])C1C2CCC(CC1c1cccc(/C=C\I)c1)N2 (stereo not given)
4.08

====

experiment-notes: Drug uptake in anesthetized cynomolgus monkey brain cerebellum after 225 mins postinjection
Format: ADME, organism-based, Macaca fascicularis
assay-conditions: in vivo, 3.75 h
property-measured: Drug uptake

compound: O=C(OCC[18F])C1C2CCC(CC1c1cccc(/C=C\Br)c1)N2 (stereo not given)
Drug uptake: 1.64

compound: O=C(OCC[18F])C1C2CCC(CC1c1ccc(/C=C\I)cc1)N2 (stereo not given)
Drug uptake: 1.08

compound: O=C(OCCC[18F])C1C2CCC(CC1c1cccc(/C=C\Br)c1)N2 (stereo not given)
Drug uptake: 2.03

compound: O=C(OCC[18F])C1C2CCC(CC1c1cccc(/C=C\I)c1)N2 (stereo not given)
Drug uptake: 1.26

Then this compound:
Would you kindly share the measured Drug uptake for O=C(OCCC[18F])C1C2CCC(CC1c1cccc(/C=C\I)c1)N2 (stereo not given) ?
1.87

====

Tested on: Medulla
experiment-notes: Drug uptake in anesthetized cynomolgus monkey brain medulla after 175 mins postinjection
Type: ADME, organism-based, Macaca fascicularis
assay-conditions: in vivo
property-measured: Drug uptake
Answer using only a numeral; do not append any unit.

compound: O=C(OCC[18F])C1C2CCC(CC1c1cccc(/C=C\I)c1)N2 (stereo not given)
Drug uptake: 2.78

Quick one: Drug uptake of O=C(OCCC[18F])C1C2CCC(CC1c1cccc(/C=C\I)c1)N2 (stereo not given) ?
4.08

So what does the record say about Drug uptake for O=C(OCC[18F])C1C2CCC(CC1c1cccc(/C=C\Br)c1)N2 (stereo not given) ?
3.62

Any idea what its Drug uptake is? The compound is O=C(OCC[18F])C1C2CCC(CC1c1ccc(/C=C\I)cc1)N2 (stereo not given)
3.52

Given O=C(OCCC[18F])C1C2CCC(CC1c1cccc(/C=C\Br)c1)N2 (stereo not given) , state its recorded Drug uptake.
4.26

====

Test system: Midbrain
experiment-notes: Drug uptake in anesthetized cynomolgus monkey brain midbrain after 55 mins postinjection
Format: ADME, organism-based, Macaca fascicularis
Set-up: unit not given here
assay-conditions: in vivo
property-measured: Drug uptake
Keep the answer to the number alone.

Use these answered entries as a reference point.
compound: O=C(OCCC[18F])C1C2CCC(CC1c1cccc(/C=C\I)c1)N2 (stereo not given)
target-entity: Midbrain
Drug uptake: 4.98

compound: O=C(OCC[18F])C1C2CCC(CC1c1cccc(/C=C\Br)c1)N2 (stereo not given)
target-entity: Midbrain
Drug uptake: 4.98

compound: O=C(OCC[18F])C1C2CCC(CC1c1ccc(/C=C\I)cc1)N2 (stereo not given)
target-entity: Midbrain
Drug uptake: 4.01

compound: O=C(OCCC[18F])C1C2CCC(CC1c1cccc(/C=C\Br)c1)N2 (stereo not given)
target-entity: Midbrain
Drug uptake: 6.1

Return reported Drug uptake; argument: O=C(OCC[18F])C1C2CCC(CC1c1cccc(/C=C\I)c1)N2 (stereo not given)
4.91

Reference source for all entries: ChEMBL document CHEMBL1151757
